- target-under-test: recombinant human soluble form of COMT (hS-COMT) (Homo sapiens, UniProt P21964)
- Sequence (P21964 51-271): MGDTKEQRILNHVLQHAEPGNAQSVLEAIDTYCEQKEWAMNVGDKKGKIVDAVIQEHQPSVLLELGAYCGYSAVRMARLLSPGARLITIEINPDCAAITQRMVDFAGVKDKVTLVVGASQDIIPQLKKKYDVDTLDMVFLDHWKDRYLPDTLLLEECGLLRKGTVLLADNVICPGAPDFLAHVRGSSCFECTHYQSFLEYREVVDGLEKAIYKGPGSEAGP
- procedure-text: Determination of COMT inhibiting activity in vitro
- run-parameters: tight binding inhibition constant, 25 μM SAM, substrate esculetin 10 μM, pH 7.4, 37° C.
pKi: −log10 of the molar value.
Threshold rule: pKi greater than or equal to 9 is Yes; below that, No.

O=C(O)c1ccc(NC(=O)c2sc3c([N+](=O)[O-])c(O)c(O)cc3c2Cl)cc1; Yes

Here's the next entry for you.
## Input Hi team, for O=C1OCc2c1cc(O)c(O)c2[N+](=O)[O-] , is the recorded pKi at or above 9?
## Output No

====

- target-under-test: recombinant human soluble form of COMT (hS-COMT) (Homo sapiens, UniProt P21964)
- procedure-text: Determination of COMT inhibiting activity in vitro
- run-parameters: tight binding inhibition constant, 25 μM SAM, substrate esculetin 10 μM, pH 7.4, 37° C.
measured-property: Ki (nM)
One number for each entry, in nM.

O=C(O)c1cccc(NC(=O)c2sc3c([N+](=O)[O-])c(O)c(O)cc3c2Cl)c1; 0.6

Consider the following items and state reported Ki for each.
1. O=C(c1sc2c([N+](=O)[O-])c(O)c(O)cc2c1Cl)N1CCOCC1
2. CCOC(=O)c1sc2c([N+](=O)[O-])c(O)c(O)cc2c1Cl
3. O=C(c1cc2cc(O)c(O)c([N+](=O)[O-])c2s1)N1CCOCC1
4. O=[N+]([O-])c1c(O)c(O)cc2c(Cl)csc12

## Output
0.6
1.5
0.9
1.5
